Source of measurements: paper PMC10940770

Substrate: CCCCCCCCCCCCCCC[C@@H](O)[C@H](CO)NC(=O)CCCCCCCCCCCC
Assay: LC-MS/MS of C13-Cerd7 formed; Hanes-Woolf plot
Format: biochemical, Homo sapiens
Settings: homogenate of transfected KO-DES-HEK (80 μg, 30 min) plus 100 μg KO-DES-HEK homogenate, 0.2 M Tris/HCl pH 7, 0.2% Triton X-100, 1 mM NADPH, 37°C, deuterated substrate
From the text: LC-MS/MS of C13-Cerd7 formed; Hanes-Woolf plot on DEGS1
PROPERTY: Km (µM)
Entry rule: numbers only, all in µM.

Exercise: I'd like to know its Km. The protein in question is DEGS1 (Homo sapiens; A280V) (protein, full-length cDNA (from Hep3B RNA) in pcDNA3, untagged, transfected into DEGS1-knockout HEK-293T (KO-DES-HEK); cell homogenate with Triton X-100) GSRVSREDFEWVYTDQPHADRRREILAKYPEIKSLMKPDPNLIWIIIMMVLTQLGAFYIVKDLDWKWVIFGAYAFGSCINHSMTLAIHEIAHNAAFGNCKAMWNRWFGMFANLPIGIPYSISFKRYHMDHHRYLGADGVDVDIPTDFEGWFFCTAFRKFIWVILQPLFYAFRPLFINPKPITYLEVINTVAQVTFDILIYYFLGIKSLVYMLAASLLGLGLHPISGHFIAEHYMFLKGHETYSYYGPLNLLTFNVGYHNEHHDFPNIPGKSLPLVRKIVAEYYDNLPHYNSWIKVLYDFVMDDTISPYSRMKRHQKGEMVLE
Key: 3.29
